Entry source: the supplement of paper PMC4862054

normalised response values for the compounds below.
Test system: MDA-MB-453
Assay: normalised response (% of control), CellTiter-Glo; higher = more viable cells (100 = DMSO, 0 = benzethonium chloride kill control)
Settings: incubation time: 72 h
ATTRIBUTE MEASURED: normalised response (%)

COMPOUND | DISPLAY UNIT | ENDPOINT VALUE
NC(=O)Nc1cc(-c2cccc(F)c2)sc1C(=O)N[C@H]1CCCNC1 [AZD7762] (1000 nM) | % | 40.8
CO[C@H]1/C=C\C=C(/C)C(=O)NC2=CC(=O)C(NCCN(C)C)=C(C[C@@H](C)C[C@H](OC)[C@H](O)[C@@H](C)/C=C(\C)[C@@H]1OC(N)=O)C2=O [Alvespimycin] (1000 nM) | % | 28.1
N[C@@H](CSC(c1ccccc1)(c1ccccc1)c1ccccc1)C(=O)O [S-trityl-L-cysteine] (40000 nM) | % | 86.2
CN(N=O)C(=O)N[C@@H](C=O)[C@@H](O)[C@H](O)[C@H](O)CO [Streptozocin] (10000 nM) | % | 95.6
O=C(O)c1ccc(-c2c[nH]c3ncc(-c4ccccc4)cc23)cc1C1CCCC1 (10000 nM) | % | 105
CS(=O)(=O)c1ccc(C2=C(c3ccccc3)C(=O)OC2)cc1 [Rofecoxib] (10000 nM) | % | 98.6
O=C1CCC(N2C(=O)c3ccccc3C2=O)C(=O)N1 (centres undefined) [Thalidomide] (10000 nM) | % | 97.2
CN(C)/N=N/c1[nH]cnc1C(N)=O [Dacarbazine] (10000 nM) | % | 99.9
CNCc1ccc(-c2[nH]c3cc(F)cc4c3c2CCNC4=O)cc1 [Rucaparib] (10000 nM) | % | 117

* * *

System: CAL-148
Assay: normalised viability (% of control), CellTiter-Blue; higher = more viable cells (about 100 = DMSO control)
Details: incubation time: 72 h
// boundary case: normalised viability equal to 50% maps to not fulfilled; strictly smaller maps to fulfilled

COMPOUND | CLASS LABEL
C[C@]12CC[C@@H]3c4ccc(O)cc4C[C@@H](CCCCCCCCC[S+]([O-])CCCC(F)(F)C(F)(F)F)[C@H]3[C@@H]1CC[C@@H]2O (stereo partly specified) [Fulvestrant] (10000 nM) | not fulfilled
Cn1c(CCCC(=O)O)nc2cc(N(CCCl)CCCl)ccc21 [Bendamustine] (10000 nM) | not fulfilled
CO[C@H]1/C=C\C=C(/C)C(=O)NC2=CC(=O)C(NCCN(C)C)=C(C[C@@H](C)C[C@H](OC)[C@H](O)[C@@H](C)/C=C(\C)[C@@H]1OC(N)=O)C2=O [Alvespimycin] (1000 nM) | fulfilled
CN[C@@H]1C[C@H]2O[C@@](C)([C@@H]1OC)n1c3ccccc3c3c4c(c5c6ccccc6n2c5c31)C(=O)N[C@H]4O [UCN-01] (10000 nM) | fulfilled
CN(N=O)C(=O)N[C@@H](C=O)[C@@H](O)[C@H](O)[C@H](O)CO [Streptozocin] (10000 nM) | not fulfilled

* * *

Tested on: HCC1599
Assay: normalised viability (% of control), CellTiter-Blue; higher = more viable cells (100 = DMSO, 0 = benzethonium chloride kill control)
Settings: incubation time: 72 h
# label = 1 if normalised viability < 90% else 0

COMPOUND | CLASS LABEL
C[C@@H](Oc1cc(-c2cnn(C3CCNCC3)c2)cnc1N)c1c(Cl)ccc(F)c1Cl [Crizotinib] (1 nM) | 1
C#Cc1cccc(Nc2ncnc3cc(OCCOC)c(OCCOC)cc23)c1 [Erlotinib] (1 nM) | 1
CN[C@@H]1C[C@H]2O[C@@](C)([C@@H]1OC)n1c3ccccc3c3c4c(c5c6ccccc6n2c5c31)C(=O)N[C@H]4O [UCN-01] (1 nM) | 0
C[C@]12CC[C@@H]3c4ccc(O)cc4C[C@@H](CCCCCCCCC[S+]([O-])CCCC(F)(F)C(F)(F)F)[C@H]3[C@@H]1CC[C@@H]2O (stereo partly specified) [Fulvestrant] (1 nM) | 0
C=C(c1ccc(C(=O)O)cc1)c1cc2c(cc1C)C(C)(C)CCC2(C)C [Bexarotene] (1 nM) | 0
